- Test system: Schistosoma mansoni mature worms
- experimentalDetails: In vitro S. mansoni worm killing
- experimentalParameters: Schistosoma mansoni, 120 h, 100 µM, day 5, initial test (Table 2); read-out: Worm killing (% of total)
- Procedure: The percentage reduction of worm or egg burden in each treated group was calculated. […] Results are expressed as mean ± SEM. A two-tailed, unpaired Student’s t-test was used to detect the significance of difference between the means of different groups. […] Each concentration was tested in duplicate, and the final recording of percent worm mortality was determined as the number of dead worms [contracted and opaque] divided by the total number of worms × 100. […]
Documented killing at 100 µM across a set of molecules
Quick note: number first, unit second.

For reference, reported killing at 100 µM for O=c1c2cc(Cl)ccc2n(Cc2ccc(C(F)(F)F)cc2)c(=O)n1Cc1ccc(F)cc1 [compound 8] stands at 100%

COc1cc2c(=O)n(Cc3ccc(F)cc3)c(=O)n(Cc3ccc(C(F)(F)F)cc3)c2cc1OC [compound 10] yielded killing at 100 µM of 100%

Kindly note the recorded killing at 100 µM for Cc1cc(Br)c2c(c1)c(=O)n(Cc1ccc(F)cc1)c(=O)n2Cc1ccc(C(F)(F)F)cc1 [compound 12] , which is 0%

response.value for COc1ccc(Cn2c(=O)c3cc(Cl)ccc3n(Cc3ccc(C(F)(F)F)cc3)c2=O)cc1 [compound 9] (field: killing at 100 µM) = 100%

killing at 100 µM in this record for COc1ccc(Cn2c(=O)c3ccccc3n(Cc3ccc(C(F)(F)F)cc3)c2=O)cc1 [compound 3] : 75%
